These entries and their values trace back to patent US9908863B2.

Tested on: P. falciparum strain NF54
MEASUREMENT_NOTES: P. falciparum growth assay ([3H] hypoxanthine incorporation)
Type: cell-based
MEASUREMENT_CONTEXT: Plasmodium falciparum, NF54, read-out: IC50 NF54
Excerpt: • Cultivation of P. falciparum: P. falciparum strain NF54 was obtained from the Research and Reference Reagent Resource Center (MR4) (Manassas, Va.). The two strains were maintained in vitro by a modification of the method of Trager and Jensen. […] Parasite growth was detected in assay by the traditional [3H] hypoxanthine incorporation assay as previously described by Desjardins and colleagues (Antimicrob. Agents Chemother., 16(6), 710, 1979). […]
Counter-ions that a name gives are not always drawn.
VALUE_KIND: pIC50
Numbers only, as −log10 of the molar value.

Below are worked cases with known answers.
{"COMPOUND": "O[C@@H]1CNCC[C@H]1n1c2ccc(Cl)cc2c2cc(Cl)ccc21 [Compound 7, hydrochloride salt]", "VALUE_KIND": "pIC50", "TEST_VALUE": 7.39}
{"COMPOUND": "O[C@H]1CNCC[C@@H]1n1c2ccc(Cl)cc2c2cc(Cl)ccc21 (racemic) [Compound 5, hydrochloride salt]", "VALUE_KIND": "pIC50", "TEST_VALUE": 6.96}
{"COMPOUND": "O[C@H]1CNCC[C@@H]1n1c2ccc(Cl)cc2c2cc(Cl)ccc21 [Compound 6, hydrochloride salt]", "VALUE_KIND": "pIC50", "TEST_VALUE": 7.40}

// next item, pIC50 requested
// lookup pIC50 for O[C@H]1CNCC[C@@H]1n1c2ccc(F)cc2c2cc(F)ccc21 [Compound 9, hydrochloride salt]
6.51
